System: mice
Test: Loss of righting after intravenous administration (mouse)
Type: in vivo
Conditions: 20 min, intravenous (lateral tail vein), 20 minute observation, acid addition salts, values corrected for the salts
Listed next: entries and their corresponding log10 of ED50.
reported_metric: log10 of ED50 (log10 of the value in mg/kg)

INSERT INTO assay_data (compound, assay_value) VALUES
  ('CCOC(=O)c1ccn(C(C)c2ccccn2)n1 (stereo not drawn) [CH3 / CO2 Et / H / N / CH]', 1.53),
  ('CCOC(=O)c1cc(C)nn1Cc1cccnc1 [H / CH3 / CO2 Et / CH / N]', 1.40),
  ('CCOC(=O)c1cc(-c2cocn2)nn1C(C)c1ccccn1 (stereo not drawn)', 0.89),
  ('CCOC(=O)c1cc(-c2ccco2)nn1Cc1ccccn1', 0.95),
  ('CCOC(=O)c1cc(C)nn1Cc1ccccn1 [H / CH3 / CO2 Et / N / CH]', 1.24),
  ('CCOC(=O)c1cc(-c2ccccn2)n(C(C)c2ccccn2)n1 (stereo not drawn)', 1.24),
  ('CCOC(=O)c1cc(-c2nnco2)nn1C(C)c1ccccn1 (stereo not drawn)', 0.95),
  ('CCOC(=O)c1cc(-c2ccccn2)nn1C(C)c1ccccn1 (stereo not drawn)', 0.54),
  ('CCOC(=O)c1cc(-c2csc(-c3ccncc3)n2)nn1C(C)c1ccccn1 (stereo not drawn)', 0.76),
  ('CC(=O)OCc1cc(C)n(C(C)c2ccccn2)n1 (stereo not drawn) [CH3 / CH2 OCOCH3 / CH3 / N / CH]', 1.79),
  ('CCOC(=O)c1ccnn1C(C)c1ccccn1 (stereo not drawn) [CH3 / H / CO2 Et / N / CH]', 1.49),
  ('CCOC(=O)c1cc(-c2cccn2C)nn1C(C)c1ccccn1 (stereo not drawn)', -0.02),
  ('CCOC(=O)c1cc(C=O)nn1C(C)c1ccccn1 (stereo not drawn) [CH3 / CHO / CO2 Et / N / CH]', 1.00),
  ('CCOC(=O)c1cc(-c2cc(C)on2)n(C(C)c2ccccn2)n1 (stereo not drawn)', 1.37),
  ('CCOC(=O)c1cc(-c2cccnc2)nn1C(C)c1ccccn1 (stereo not drawn)', 0.36),
  ('CCOC(=O)c1nc(-c2cc(C(=O)OCC)n(C(C)c3ccccn3)n2)cs1 (stereo not drawn)', 1.13),
  ('CCOC(=O)c1cc(-c2ccco2)n(Cc2ccccn2)n1', 1.25),
  ('CCOC(=O)c1cc(CC)nn1C(C)c1ccccn1 (stereo not drawn) [CH3 / CH2 CH3 / CO2 Et / N / CH]', 0.97),
  ('CCOC(=O)c1ccn(Cc2ccccn2)n1 [H / CO2 Et / H / N / CH]', 1.64),
  ('C=C(C)c1cc(C(=O)OCC)nn1C(C)c1ccccn1 (stereo not drawn)', 0.95),
  ('CCOC(=O)c1cc(CC)n(C(C)c2ccccn2)n1 (stereo not drawn) [CH3 / CO2 Et / CH2 CH3 / N / CH]', 0.97);

* * *

System: mice
Assay: Loss of righting after intravenous administration (mouse)
Format: in vivo
Conditions: 20 min, intravenous (lateral tail vein), 20 minute observation, acid addition salts, values corrected for the salts
reported_metric: ED50 (mg/kg)

INSERT INTO measurements (molecule, measured_target, assay_value) VALUES
  ('CCOC(=O)c1cc(-c2csc(C(=O)OCC)n2)n(C(C)c2ccccn2)n1 (centres unmarked)', 'mice', 31.6),
  ('CCOC(=O)c1cc(-c2csc(-c3ccncc3)n2)n(C(C)c2ccccn2)n1 (centres unmarked)', 'mice', 51.4),
  ('CCOC(=O)c1cc(C(=O)OCC)n(Cc2ccccn2)n1 [H / CO2 Et / CO2 Et / N / CH]', 'mice', 6.9),
  ('CCOC(=O)c1cc(O)n(C(C)c2ccccn2)n1 (centres unmarked) [CH3 / CO2 Et / OH / N / CH]', 'mice', 31),
  ('CCOC(=O)c1cc(-c2cn3ccccc3n2)nn1C(C)c1ccccn1 (centres unmarked)', 'mice', 14.3);

Cited source: patent US5470862A
